Biological target: Protein deacetylase HDAC6 (Homo sapiens)
Sequence (Q9UBN7 whole entry): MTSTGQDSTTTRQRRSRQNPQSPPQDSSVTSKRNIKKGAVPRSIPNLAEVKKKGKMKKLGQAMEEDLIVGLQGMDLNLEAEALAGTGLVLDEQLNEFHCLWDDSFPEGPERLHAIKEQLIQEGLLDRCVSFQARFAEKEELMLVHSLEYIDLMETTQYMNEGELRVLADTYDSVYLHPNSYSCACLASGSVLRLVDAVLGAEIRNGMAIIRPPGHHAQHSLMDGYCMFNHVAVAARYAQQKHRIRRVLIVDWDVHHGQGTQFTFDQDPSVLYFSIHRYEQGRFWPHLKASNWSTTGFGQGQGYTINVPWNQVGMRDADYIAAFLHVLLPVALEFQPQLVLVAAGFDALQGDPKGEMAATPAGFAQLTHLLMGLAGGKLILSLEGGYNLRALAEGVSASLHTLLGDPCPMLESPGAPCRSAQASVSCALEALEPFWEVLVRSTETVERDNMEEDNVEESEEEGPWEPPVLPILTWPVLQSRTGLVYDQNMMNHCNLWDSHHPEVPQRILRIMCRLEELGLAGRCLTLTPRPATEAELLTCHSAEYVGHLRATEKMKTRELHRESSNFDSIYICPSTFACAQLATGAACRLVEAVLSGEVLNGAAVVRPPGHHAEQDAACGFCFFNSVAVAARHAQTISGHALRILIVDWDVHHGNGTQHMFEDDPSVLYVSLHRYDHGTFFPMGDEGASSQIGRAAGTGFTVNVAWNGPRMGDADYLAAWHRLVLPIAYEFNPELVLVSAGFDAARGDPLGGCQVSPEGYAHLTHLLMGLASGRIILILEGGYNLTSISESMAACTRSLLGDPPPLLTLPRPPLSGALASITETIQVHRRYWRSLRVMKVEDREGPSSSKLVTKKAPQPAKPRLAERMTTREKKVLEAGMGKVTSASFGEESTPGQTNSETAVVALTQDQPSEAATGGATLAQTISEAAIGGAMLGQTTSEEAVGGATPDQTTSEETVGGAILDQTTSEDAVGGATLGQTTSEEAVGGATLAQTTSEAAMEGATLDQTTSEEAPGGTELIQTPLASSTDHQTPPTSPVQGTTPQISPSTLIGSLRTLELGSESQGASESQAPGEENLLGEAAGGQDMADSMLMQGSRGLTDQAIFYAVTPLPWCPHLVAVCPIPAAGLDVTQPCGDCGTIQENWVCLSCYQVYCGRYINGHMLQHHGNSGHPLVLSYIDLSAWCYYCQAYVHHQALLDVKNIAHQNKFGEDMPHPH
Experiment: Inhibition of full length human recombinant N-terminal GST-tagged HDAC6 (1 to 1215 residues) expressed in sf9 cells preincubated with enzyme followed by fluorogenic Arg-His-Lys-Lys(Ac)-AMC substrate addition measured after 2 hrs by fluorescence assay
measuredEndpoint: pIC50
Scale: pIC50 equals -log10([C]), with [C] in mol/L.

O=C(CCCCCCOc1ccc2cc1COC/C=C/COCc1cccc(c1)-c1ccnc(n1)N2)NO	8.68
O=C(CCCCCCC(=O)Nc1ccc(NCCOc2ccc3cc2COC/C=C/COCc2cccc(c2)-c2ccnc(n2)N3)cc1)NO	8.64
O=C(NO)c1ccc(NCCOc2ccc3cc2COC/C=C/COCc2cccc(c2)-c2ccnc(n2)N3)cc1	6.40
O=C(CCCCOc1ccc2cc1COC/C=C/COCc1cccc(c1)-c1ccnc(n1)N2)NO	6.97
O=C(NO)c1ccc(OCCOc2ccc3cc2COC/C=C/COCc2cccc(c2)-c2ccnc(n2)N3)cc1	7.18

stdin: Please give the documented pIC50 of `O=C(O)CCCCCCCOc1ccc2cc1COC/C=C/COCc1cccc(c1)-c1ccnc(n1)N2`
stdout: 5.00

stdin: For the molecule `O=C(O)CCCCCCOc1ccc2cc1COC/C=C/COCc1cccc(c1)-c1ccnc(n1)N2` , give its reported pIC50.
stdout: 5.55

stdin: Identify measured pIC50 associated with `O=C(CCCOc1ccc2cc1COC/C=C/COCc1cccc(c1)-c1ccnc(n1)N2)NO`
stdout: 6.29

stdin: Retrieve pIC50 measured for `O=C(O)CCCCCCC(=O)Nc1ccc(NCCOc2ccc3cc2COC/C=C/COCc2cccc(c2)-c2ccnc(n2)N3)cc1` and print it.
stdout: 5.59

stdin: Determine its reported pIC50: `O=C(O)c1ccc(NCCOc2ccc3cc2COC/C=C/COCc2cccc(c2)-c2ccnc(n2)N3)cc1`
stdout: 4.19

stdin: Supply recorded pIC50 for `O=C(CCCCCOc1ccc2cc1COC/C=C/COCc1cccc(c1)-c1ccnc(n1)N2)NO` here.
stdout: 7.55

stdin: Dear colleague, please send me the reported pIC50 for `O=C(NO)c1cccc(NCCOc2ccc3cc2COC/C=C/COCc2cccc(c2)-c2ccnc(n2)N3)c1` when you can.
stdout: 5.54

stdin: Give pIC50 for the following molecule: `O=C(NO)C1CCN(CCOc2ccc3cc2COC/C=C/COCc2cccc(c2)-c2ccnc(n2)N3)CC1`
stdout: 6.05

stdin: Return reported pIC50. Input molecule: `O=C(CCCCCC(=O)Nc1ccc(NCCOc2ccc3cc2COC/C=C/COCc2cccc(c2)-c2ccnc(n2)N3)cc1)NO`
stdout: 8.60

stdin: Check the records and state pIC50 for `O=C(O)c1cccc(NCCOc2ccc3cc2COC/C=C/COCc2cccc(c2)-c2ccnc(n2)N3)c1`
stdout: 4.28

stdin: Report pIC50 for `O=C(CCCCCCCOc1ccc2cc1COC/C=C/COCc1cccc(c1)-c1ccnc(n1)N2)NO`
stdout: 7.80

stdin: Query pIC50 for `O=C(O)CCCCCOc1ccc2cc1COC/C=C/COCc1cccc(c1)-c1ccnc(n1)N2`
stdout: 4.35
